Source: patent US8178690B2

Ki data for Bcl-2 (Homo sapiens, UniProt P10415) follow.
measured-attribute: Ki

molecule=COc1c(CN2O[C@@H](CO)[C@@H]([C@H](C)O)[C@H]2C(=O)N[C@H]2C[C@H]3C[C@@H]([C@@H]2C)C3(C)C)cccc1-c1cc(C(=O)N[C@@H](CCc2ccccc2)CN(C)C)cc([N+](=O)[O-])c1 target_of_assay="Bcl-2 (Homo sapiens, UniProt P10415)" measured_attribute=Ki experimental_value="< 1 nM"
molecule=COc1c(CN2O[C@@H](CO)[C@@H]([C@H](C)O)[C@H]2C(=O)N[C@H]2C[C@H]3C[C@@H]([C@@H]2C)C3(C)C)cccc1-c1cc(NCC(C)C)cc(C(=O)N[C@@H](CC(C)C)CN(C)C)c1 target_of_assay="Bcl-2 (Homo sapiens, UniProt P10415)" measured_attribute=Ki experimental_value="1 to 5 nM"

====

Ki data for Bcl-2 (Homo sapiens) follow.
measured-attribute: Ki

molecule=COc1c(CN2O[C@@H](CO)[C@@H]([C@H](C)O)[C@H]2C(=O)N[C@H]2C[C@H]3C[C@@H]([C@@H]2C)C3(C)C)cccc1-c1cc(C(=O)N[C@@H](Cc2ccccc2)CN(C)C)cc(N(C)CC(=O)O)c1 experimental_value="< 1 nM"
molecule=COC(=O)[C@H](Cc1ccccc1)NC(=O)c1cc(-c2cccc(CN3O[C@@H](CN)[C@@H]([C@H](C)O)[C@H]3C(=O)N[C@H]3C[C@H]4C[C@@H]([C@@H]3C)C4(C)C)c2OC)cc(N(C)C)c1 experimental_value="< 1 nM"

====

pKi: −log10 of the molar value.
pKi data for Bcl-xL (Homo sapiens) follow.
measured-attribute: pKi

compound="COc1c(CN2O[C@@H](CN)[C@@H]([C@H](C)O)[C@H]2C(=O)N[C@H]2C[C@H]3C[C@@H]([C@@H]2C)C3(C)C)cccc1-c1cc(C(=O)N(C)OC)cc(N(C)C)c1 [Compound 66]" target_of_assay="Bcl-xL (Homo sapiens)" measured_attribute=pKi experimental_value="5.00 to 5.30"
compound="COc1c(CN2O[C@@H](CN)[C@@H]([C@H](C)O)[C@H]2C(=O)N[C@H]2C[C@H]3C[C@@H]([C@@H]2C)C3(C)C)cccc1-c1cc(C(=O)O)cc(N(C)C)c1 [Compound 71]" target_of_assay="Bcl-xL (Homo sapiens)" measured_attribute=pKi experimental_value="5.30 to 6.00"
compound="COc1c(-c2cc(C(=O)N[C@H](CN(C)C)[C@H](O)c3ccccc3)cc(N(C)C)c2)ccc(F)c1CN1O[C@@H](CO)[C@@H]([C@H](C)O)[C@H]1C(=O)N[C@H]1C[C@H]2C[C@@H]([C@@H]1C)C2(C)C [Compound 143]" target_of_assay="Bcl-xL (Homo sapiens)" measured_attribute=pKi experimental_value="> 6.00"

====

pKi data for Bcl-2 (Homo sapiens, UniProt P10415) follow.
pKi: −log10 of the molar value.
measured-attribute: pKi

compound="CCOc1c(CN2O[C@@H](CO)[C@@H]([C@H](C)O)[C@H]2C(=O)N[C@H]2C[C@H]3C[C@@H]([C@@H]2C)C3(C)C)cccc1-c1cc(C(=O)N[C@@H](Cc2ccccc2)CN2CCCC2)cc(N(C)C)c1 [Compound 182]" experimental_value="> 9.00"
compound="COc1c(CN2O[C@@H](CNC(=O)CCC(=O)O)[C@@H]([C@H](C)O)[C@H]2C(=O)N[C@H]2C[C@H]3C[C@@H]([C@@H]2C)C3(C)C)cccc1-c1cc(C(=O)N[C@H](CN(C)C)CC(C)(C)C)cc(N(C)C)c1 [Compound 114]" experimental_value="> 9.00"
compound="CCOc1c(CN2O[C@@H](CO)[C@@H]([C@H](C)O)[C@H]2C(=O)N[C@H]2C[C@H]3C[C@@H]([C@@H]2C)C3(C)C)cccc1-c1cc(C(=O)N[C@@H](CC(C)C)CN(C)C)cc(N(C)C)c1 [Compound 35]" experimental_value="> 9.00"
compound="COc1c(CN2O[C@@H](CO)[C@@H]([C@H](C)O)[C@H]2C(=O)N[C@H]2C[C@H]3C[C@@H]([C@@H]2C)C3(C)C)cccc1-c1cc(C(=O)N[C@H](CN(C)C)[C@@H](NS(C)(=O)=O)c2ccccc2)cc(N(C)CCO)c1 [Compound 290]" experimental_value="> 9.00"
compound="COc1c(-c2cc(C(=O)N[C@@H](Cc3ccccc3)CN(C)C)cc(N(C)C)c2)ccc(Cl)c1CN1O[C@@H](CO)[C@@H]([C@H](C)O)[C@H]1C(=O)N[C@H]1C[C@H]2C[C@@H]([C@@H]1C)C2(C)C [Compound 274]" experimental_value="> 9.00"
compound="COc1c(CN2O[C@@H](CN)[C@@H]([C@H](C)O)[C@H]2C(=O)N[C@H]2C[C@H]3C[C@@H]([C@@H]2C)C3(C)C)cccc1-c1cc(C(=O)N[C@@H](CC(C)C)CN(C)C)cc(N(C)C)c1 [Compound 72]" experimental_value="> 9.00"
compound="COc1c(CN2O[C@@H](CN=C(N(C)C)N(C)C)[C@@H]([C@H](C)O)[C@H]2C(=O)N[C@H]2C[C@H]3C[C@@H]([C@@H]2C)C3(C)C)cccc1-c1cc(C(=O)NCCc2ccccc2)cc(N(C)C)c1 [Compound 86]" experimental_value="< 8.05"
compound="COc1c(CN2O[C@@H](CO)[C@@H]([C@H](C)O)[C@H]2C(=O)N[C@H]2C[C@H]3C[C@@H]([C@@H]2C)C3(C)C)cccc1-c1cc2c(c(C(=O)N[C@H](CN(C)C)CC(C)(C)C)c1)OCO2 [Compound 202]" experimental_value="> 9.00"
compound="COc1c(CN2O[C@@H](CO)[C@@H]([C@H](C)O)[C@H]2C(=O)N[C@H]2C[C@H]3C[C@@H]([C@@H]2C)C3(C)C)cccc1-c1cc(C(=O)N2CCN(C)C[C@@H]2Cc2ccccc2)cc(N(C)C)c1 [Compound 193]" experimental_value="8.30 to 9.00"
compound="CCOc1c(CN2O[C@@H](CO)[C@@H]([C@H](C)O)[C@H]2C(=O)N[C@H]2C[C@H]3C[C@@H]([C@@H]2C)C3(C)C)cccc1-c1cc(C(=O)N[C@H](Cc2ccccc2)CN(C)C)cc(N(C)C)c1 [Compound 23]" experimental_value="> 9.00"
compound="CNC(=O)c1cc(-c2cccc(CN3O[C@@H](CNCc4cccc(C(=O)O)c4)[C@@H]([C@H](C)O)[C@H]3C(=O)N[C@H]3C[C@H]4C[C@@H]([C@@H]3C)C4(C)C)c2OC)cc(N(C)C)c1 [Compound 84]" experimental_value="< 8.05"
compound="COc1c(CN2O[C@@H](CO)[C@@H]([C@H](C)O)[C@H]2C(=O)N[C@H]2C[C@H]3C[C@@H]([C@@H]2C)C3(C)C)cccc1-c1cc(C(=O)N[C@@H](CC(C)C)CN(C)C)cc(N(C)CC(C)C)c1 [Compound 271]" experimental_value="> 9.00"
compound="COc1c(-c2cc(C(=O)N[C@H](CN(C)C)[C@H](O)c3ccccc3)cc(N(C)C)c2)ccc(F)c1CN1O[C@@H](CO)[C@@H]([C@H](C)O)[C@H]1C(=O)N[C@H]1C[C@H]2C[C@@H]([C@@H]1C)C2(C)C [Compound 143]" experimental_value="> 9.00"
compound="COc1c(CN2O[C@@H](CO)[C@@H]([C@H](C)O)[C@H]2C(=O)N[C@H]2C[C@H]3C[C@@H]([C@@H]2C)C3(C)C)cccc1-c1cc(C(=O)N[C@@H](CC(C)C)C(N)=O)cc(N(C)C)c1 [Compound 260]" experimental_value="8.30 to 9.00"
compound="COc1c(CN2O[C@@H](CN)[C@@H]([C@H](C)O)[C@H]2C(=O)N[C@H]2C[C@H]3C[C@@H]([C@@H]2C)C3(C)C)cccc1-c1cc(C(=O)N(C)OC)cc(N(C)C)c1 [Compound 66]" experimental_value="> 9.00"
compound="COc1c(CN2O[C@@H](CN)[C@@H]([C@H](C)O)[C@H]2C(=O)N[C@H]2C[C@H]3C[C@@H]([C@@H]2C)C3(C)C)cccc1-c1cc(C(=O)NCCc2ccccn2)cc(N(C)C)c1 [Compound 64]" experimental_value="> 9.00"
compound="COc1c(CN2O[C@@H](CO)[C@@H]([C@H](C)O)[C@H]2C(=O)N[C@H]2C[C@H]3C[C@@H]([C@@H]2C)C3(C)C)cccc1-c1cc(C(=O)N[C@H](CN2CCCC2)[C@H](O)c2ccccc2)cc(N(C)C)c1 [Compound 160]" experimental_value="> 9.00"

====

pKi: −log10 of the molar value.
pKi data for Bcl-xL (Homo sapiens) follow.
measured-attribute: pKi

molecule=COc1c(CN2O[C@@H](CNC(C)=O)[C@@H]([C@H](C)O)[C@H]2C(=O)N[C@H]2C[C@H]3C[C@@H]([C@@H]2C)C3(C)C)cccc1-c1cc(C(=O)N[C@H](CN(C)C)CC(C)(C)C)cc(N(C)C)c1 experimental_value="> 6.00"
molecule=COc1c(CN2O[C@@H](CO)[C@@H]([C@H](C)O)[C@H]2C(=O)N[C@H]2C[C@H]3C[C@@H]([C@@H]2C)C3(C)C)cccc1-c1cc(C(=O)N[C@@H](Cc2cccs2)CN(C)C)cc(N(C)C)c1 experimental_value="> 6.00"
molecule=COc1c(CN2O[C@@H](CN=C(N(C)C)N(C)C)[C@@H]([C@H](C)O)[C@H]2C(=O)N[C@H]2C[C@H]3C[C@@H]([C@@H]2C)C3(C)C)cccc1-c1cc(C(=O)NCCc2ccccc2)cc(N(C)C)c1 experimental_value="< 5.00"
molecule=COc1c(CN2O[C@@H](CO)[C@@H]([C@H](C)O)[C@H]2C(=O)N[C@H]2C[C@H]3C[C@@H]([C@@H]2C)C3(C)C)cccc1-c1cc(C(C)=O)cc(C(=O)N[C@@H](Cc2ccccc2)CN(C)C)c1 experimental_value="> 6.00"
molecule=CNC(=O)c1cc(-c2cccc(CN3O[C@@H](CNC(=O)Nc4ccccc4)[C@@H]([C@H](C)O)[C@H]3C(=O)N[C@H]3C[C@H]4C[C@@H]([C@@H]3C)C4(C)C)c2OC)cc(N(C)C)c1 experimental_value="5.00 to 5.30"
